This document collects IC50 values reported for human Gal-3 (hGal-3) (Homo sapiens (Human), UniProt P17931).
MEASURED PARAMETER: IC50 (nM)

Below: 4 molecules and their reported IC50.
CO[C@@H]1[C@@H](n2cc(-c3cc(F)c(F)c(F)c3)nn2)[C@@H](O)[C@@H](CO)O[C@@H]1CC1=NOC2(CCC(NCC(F)F)CC2)C1 (stereo partly drawn) [Example 2.15]    280
CNC(=O)CO[C@@H]1[C@@H](n2cc(-c3cc(F)c(F)c(F)c3)nn2)[C@@H](O)[C@@H](CO)O[C@@H]1CC1=NOC2(CCCCC2)C1 [Example 1.70]    240
CO[C@@H]1[C@@H](n2cc(-c3ccc(C)c(F)c3F)nn2)[C@@H](O)[C@@H](CO)O[C@@H]1CC1=NOC2(CCOCC2)C1 [Example 1.36]    64
CO[C@@H]1[C@@H](n2cc(-c3ccc(C)c(F)c3F)nn2)[C@@H](O)[C@@H](CO)O[C@@H]1CC1=NO[C@]2(CC[C@@H](C(C)(C)O)CC2)C1 [Example 1.63]    180

[P] CO[C@@H]1[C@@H](n2cc(-c3cc(F)c(F)c(F)c3)nn2)[C@@H](O)[C@@H](CO)O[C@@H]1CC1=NOC2(CCC(NCC(F)(F)F)CC2)C1 (stereo partly drawn) [Example 2.17]
[Q] CO[C@@H]1[C@@H](n2cc(-c3cc(F)c(F)c(F)c3)nn2)[C@@H](O)[C@@H](CO)O[C@@H]1CC1=NO[C@]2(CC[C@H](C)CC2)C1 [Example 1.33]
I'm curious, which of these has a smaller IC50 number: P or Q ? Kindly give the label for the entry you pick. P

* * *

Biological target: human Gal-1 (hGal-1) (Homo sapiens)
Assay: Competitive binding assay: biotinylated hGal-1 to microplate-adsorbed asialofetuin (ASF)
Conditions: Activities on hGal-1; binding to ASF-coated plates, 3 hours at 4° C.; mean values; read-out: Gal-1 IC50
Protocol: Evaluation of Compound Inhibitory Activity (IC50) The inhibitory activity of compounds is determined in competitive binding assays. […] Alternatively, and preferably, a human Gal-1 version in which all six cysteines are substituted by serines may be used. Briefly, compounds are serially diluted in DMSO (working dilutions). […] The calculated IC50 values may fluctuate depending on the daily assay performance. […]
pIC50: −log10 of the molar value.
MEASURED PARAMETER: pIC50

Below: 8 compounds and their reported pIC50.
CO[C@@H]1[C@@H](n2cc(-c3ccc(C)c(F)c3F)nn2)[C@@H](O)[C@@H](CO)O[C@@H]1CC1=NOC2(CCC(=O)N(C)CC2)C1 (mixture of isomers) [Example 1.77]    5.32
CO[C@@H]1[C@@H](n2cc(-c3ccc(C)c(F)c3F)nn2)[C@@H](O)[C@@H](CO)O[C@@H]1CN1CC2(CCCCC2)NC1=O [Example 4.01]    5.89
Cc1ccc(-c2cn([C@H]3[C@@H](O)[C@@H](CO)O[C@H](CC4=NOC5(CCOCC5)C4)[C@@H]3OCC(=O)O)nn2)c(F)c1F [Example 2.24]    5.17
CO[C@@H]1[C@@H](n2cc(-c3ccc(Cl)c(F)c3F)nn2)[C@@H](O)[C@@H](CO)O[C@@H]1CC1=NO[C@]2(CC[C@@H](C#N)CC2)C1 [Example 1.60]    5.80
CNC(=O)CO[C@@H]1[C@@H](n2cc(-c3cc(F)c(F)c(F)c3)nn2)[C@@H](O)[C@@H](CO)O[C@@H]1CC1=NOC2(CCCCC2)C1 [Example 1.70]    5.29
CO[C@@H]1[C@@H](n2cc(-c3ccc(Cl)c(F)c3F)nn2)[C@@H](O)[C@@H](CO)O[C@@H]1CC1=NOC2(CCOCC2)C1 [Example 1.37]    5.34
CCO[C@@H]1[C@@H](n2cc(-c3cc(F)c(F)c(F)c3)nn2)[C@@H](O)[C@@H](CO)O[C@@H]1CC1=NOC2(CCCCC2)C1 [Example 1.69]    5.51
CO[C@@H]1[C@@H](n2cc(-c3ccc(F)c(F)c3F)nn2)[C@@H](O)[C@@H](CO)O[C@@H]1CC1=NOC2(CCC(C(C)(C)O)CC2)C1 (some centres unmarked) [Example 1.48]    5.59

[I] CO[C@@H]1[C@@H](n2cc(-c3ccc(C)c(F)c3F)nn2)[C@@H](O)[C@@H](CO)O[C@@H]1CC1=NO[C@]2(CC[C@@H](C#N)CC2)C1 [Example 1.56]
[II] CO[C@@H]1[C@@H](n2cc(-c3cc(F)c(F)c(F)c3)nn2)[C@@H](O)[C@@H](CO)O[C@@H]1CC1=NOC2(CCC(N3CCOCC3)CC2)C1 (some centres unmarked) [Example 2.19]
Higher pIC50: I or II ? Kindly give the label for the entry you pick. II
(II: 5.77, I: 5.44)

* * *

pIC50: −log10 of the molar value.
This document collects pIC50 values reported for human Gal-3 (hGal-3) (Homo sapiens (Human), UniProt P17931).
MEASURED PARAMETER: pIC50

Below: 4 molecules and their reported pIC50.
CO[C@@H]1[C@@H](n2cc(-c3ccc(C)c(F)c3F)nn2)[C@@H](O)[C@@H](CO)O[C@@H]1CC1=NOC2(C1)CC1CCC2C1 (stereo partly drawn)    7.22
CO[C@@H]1[C@@H](n2cc(-c3cc(F)c(F)c(F)c3)nn2)[C@@H](O)[C@@H](CO)O[C@@H]1CC1=NOC2(CCC(=O)CC2)C1    6.60
CO[C@@H]1[C@@H](n2cc(-c3ccc(C)c(F)c3F)nn2)[C@@H](O)[C@@H](CO)O[C@@H]1CN1CC2(CCCCC2)OC1=O    7.44
CO[C@@H]1[C@@H](n2cc(-c3cc(F)c(F)c(F)c3)nn2)[C@@H](O)[C@@H](CO)O[C@@H]1CC1=NOC2(CCC(NC3CC3)CC2)C1 (stereo partly drawn)    6.62

[a] CO[C@@H]1[C@@H](n2cc(-c3ccc(Cl)c(F)c3)nn2)[C@@H](O)[C@@H](CO)O[C@@H]1CC1=NOC2(CCCCC2)C1
[b] CO[C@@H]1[C@@H](n2cc(-c3ccc(F)c(F)c3F)nn2)[C@@H](O)[C@@H](CO)O[C@@H]1CC1=NOC2(CCOCC2)C1
Higher pIC50: a or b ? Kindly give the label for the entry you pick. b

* * *

target: human Gal-1 (hGal-1) (Homo sapiens); assay: Competitive binding assay: biotinylated hGal-1 to microplate-adsorbed asialofetuin (ASF); details: Activities on hGal-1; binding to ASF-coated plates, 3 hours at 4° C.; mean values; read-out: Gal-1 IC50
MEASURED PARAMETER: IC50 (µM)

[P] CO[C@@H]1[C@@H](n2cc(-c3ccc(Cl)c(F)c3F)nn2)[C@@H](O)[C@@H](CO)O[C@@H]1CC1=NOC2(CCC(C(C)(C)O)CC2)C1 (stereo partly drawn)
[Q] CO[C@@H]1[C@@H](n2cc(-c3ccc(C)c(F)c3F)nn2)[C@@H](O)[C@@H](CO)O[C@@H]1CC1=NO[C@]2(CC[C@H](NC(=O)OC(C)(C)C)CC2)C1
[R] CO[C@@H]1[C@@H](n2cc(-c3ccc(C)c(F)c3F)nn2)[C@@H](O)[C@@H](CO)O[C@@H]1CC1=NOC2(CCCCC2)C1
Please arrange the 3 molecules above from largest to smallest IC50 value. Rank the items, then write their labels in that order. P, R, Q

* * *

biological target: human Gal-1 (hGal-1) (Homo sapiens, UniProt P09382); test: Competitive binding assay: biotinylated hGal-1 to microplate-adsorbed asialofetuin (ASF); details: Activities on hGal-1; binding to ASF-coated plates, 3 hours at 4° C.; mean values; read-out: Gal-1 IC50
Sequence (P09382 2-135 limits assumed): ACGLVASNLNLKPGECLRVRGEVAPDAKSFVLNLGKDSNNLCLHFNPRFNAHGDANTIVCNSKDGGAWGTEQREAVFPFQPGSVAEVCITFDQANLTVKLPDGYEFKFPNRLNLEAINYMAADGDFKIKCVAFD
MEASURED PARAMETER: IC50 (µM)

Below: 5 molecules and their reported IC50.
CO[C@@H]1[C@@H](n2cc(-c3ccc(C)c(F)c3F)nn2)[C@@H](O)[C@@H](CO)O[C@@H]1CC1=NOC2(CCOCC2)C1    3.8
CO[C@@H]1[C@@H](n2cc(-c3ccc(Br)c(F)c3F)nn2)[C@@H](O)[C@@H](CO)O[C@@H]1CC1=NOC2(CCCCC2)C1    6
CO[C@@H]1[C@@H](n2cc(-c3cc(F)c(F)c(F)c3)nn2)[C@@H](O)[C@@H](CO)O[C@@H]1CC1=NO[C@]2(CC[C@@H](C)CC2)C1    2.5
NC(=O)O[C@@H]1[C@@H](n2cc(-c3cc(F)c(F)c(F)c3)nn2)[C@@H](O)[C@@H](CO)O[C@@H]1CC1=NOC2(CCCCC2)C1    6.5
Cc1ccc(-c2cn([C@H]3[C@@H](O)[C@@H](CO)O[C@H](CC4=NOC5(CCC(F)(F)CC5)C4)[C@@H]3O)nn2)c(F)c1F    10.4

[1] CO[C@@H]1[C@@H](n2cc(-c3cc(F)c(F)c(F)c3)nn2)[C@@H](O)[C@@H](CO)O[C@@H]1CC1=NO[C@]2(CC[C@H](NC(=O)OC(C)(C)C)CC2)C1
[2] CO[C@@H]1[C@@H](n2cc(-c3cc(F)c(F)c(F)c3)nn2)[C@@H](O)[C@@H](CO)O[C@@H]1CC1=NOC2(CCC(=O)CC2)C1
I'm curious, which of these has a smaller IC50 number: 1 or 2 ? Kindly give the label for the entry you pick. 1
(1: 1.1 µM, 2: 2.7 µM)

[A] CO[C@@H]1[C@@H](n2cc(-c3ccc(C)c(F)c3F)nn2)[C@@H](O)[C@@H](CO)O[C@@H]1CC1=NOC2(C1)CC1CCC2C1 (stereo partly drawn)
[B] CO[C@@H]1[C@@H](n2cc(-c3ccc(C)c(F)c3F)nn2)[C@@H](O)[C@@H](CO)O[C@@H]1CC1=NOC2(CCCN(C(=O)OC(C)(C)C)CC2)C1 (mixture of isomers)
I'm curious, which of these has a smaller IC50 number: A or B ? Kindly give the label for the entry you pick. A
(A: 2.37 µM, B: 8.2 µM)

[P] CO[C@@H]1[C@@H](n2cc(-c3cc(F)c(F)c(F)c3)nn2)[C@@H](O)[C@@H](CO)O[C@@H]1CC1=NOC2(CCCCC2)C1
[Q] CO[C@@H]1[C@@H](n2cc(-c3ccc(Cl)c(F)c3F)nn2)[C@@H](O)[C@@H](CO)O[C@@H]1CC1=NOC2(C1)CN(C(=O)OC(C)(C)C)C2
Higher IC50: P or Q ? Kindly give the label for the entry you pick. Q
(Q: 7.2 µM, P: 1.9 µM)
